Value source: PubChem BioAssay (NCI)

system: MCF7 breast; test: NCI tumour cell line growth inhibition, 48 h
outcome.measure: TGI

>  <compound>
Cc1ccc2c(c1C)C(=O)C1(Cc3cc4c(cc3C1=O)CCC4)C2 (centres undefined)

>  <experimental.target>
MCF7 breast

>  <reported>
> 100 µM

$$$$
>  <compound>
O=C(NCc1ccccc1)c1cc2ccccc2oc1=Nc1cccc(C(F)(F)F)c1

>  <experimental.target>
MCF7 breast

>  <reported>
> 100 µM

$$$$
>  <compound>
OCc1cn(Cc2ccccc2)c2ccccc12

>  <experimental.target>
MCF7 breast

>  <reported>
> 18 µM

$$$$

# input for lookup
Input: Which TGI is reported for this compound? O=C1NC(=N[C@@H](CO)c2ccccc2)S/C1=C\c1ccc2ncccc2c1
Output: > 25 µM

---

tested on: HOP-92 NSCLC; assay: NCI tumour cell line growth inhibition, 48 h
Each record here notes measured GI50.

Below are worked cases with known answers.
>  <molecule>
Cn1nccc1Nc1nccc(-c2ccn([C@H](CO)c3ccc(Cl)c(F)c3)c(=O)c2)n1

>  <outcome.measure>
GI50

>  <reported>
1360 nM

$$$$
>  <molecule>
CC(=O)ON1CCCC(P(=O)(OCOC(=O)C(C)(C)C)OCOC(=O)C(C)(C)C)C1=O (configuration not stated)

>  <outcome.measure>
GI50

>  <reported>
187 nM

$$$$
>  <molecule>
CCN(CC)Cc1cc(Nc2nc(NC3CCC(N(C)C)CC3)c3ccccc3n2)ccc1OC (configuration not stated)

>  <outcome.measure>
GI50

>  <reported>
1630 nM

$$$$
>  <molecule>
Nc1nc2c(c3cnccc13)C(c1ccc(Cl)c(Cl)c1)Cc1cnccc1-2 (configuration not stated)

>  <outcome.measure>
GI50

>  <reported>
1880 nM

$$$$
>  <molecule>
N#CC(C(=O)C(=O)Nc1c(Cl)cccc1Cl)c1ccccc1 (configuration not stated)

>  <outcome.measure>
GI50

>  <reported>
> 100000 nM

$$$$
>  <molecule>
FC(F)(F)Oc1cccc(-c2cc(NCCCCCCNc3cc(-c4cccc(OC(F)(F)F)c4)nc4ccc(N5CCCC5)cc34)c3cc(N4CCCC4)ccc3n2)c1

>  <outcome.measure>
GI50

>  <reported>
1540 nM

$$$$
>  <molecule>
Cc1cccc(NC(=O)c2sc3nc4c(cc3c2N)C(=O)CCC4)c1

>  <outcome.measure>
GI50

>  <reported>
1800 nM

$$$$
>  <molecule>
CC1(C)OC[C@@H]([C@@]2(CO[Si](c3ccccc3)(c3ccccc3)C(C)(C)C)CC=CC(=O)O2)O1

>  <outcome.measure>
GI50

>  <reported>
6720 nM

$$$$
>  <molecule>
COc1cc2c(N3CCN(C(=O)Nc4ccc(OC(C)C)cc4)CC3)ncnc2cc1OCCCN1CCCCC1

>  <outcome.measure>
GI50

>  <reported>
6240 nM

$$$$
>  <molecule>
COC1N(C2CC(O)C(CO)O2)C(=O)NC(=O)C1(F)Br (configuration not stated)

>  <outcome.measure>
GI50

>  <reported>
13200 nM

$$$$

Input: Query the reported GI50 for HOP-92 NSCLC; item: O=C(OCc1ccc2c(Br)cc(Br)c(O)c2n1)c1cc2ccccc2[nH]1
Output: 548 nM

Input: Query the reported GI50 for HOP-92 NSCLC; item: CNC(=O)c1ncccc1Nc1nc(Nc2cc3c(cc2OC)CCCN3C(=O)CN(C)C)nc2[nH]ccc12
Output: 49 nM
